- Experimental Context: in n-pentanol, 303.15 K
Measurement Type: solubility (mole fraction)
Write the value as a bare number.

Give its solubility (mole fraction) value. Item: CS(=O)(=O)c1ccc(C(=O)C2C(=O)CCCC2=O)c([N+](=O)[O-])c1 0.00228

----------
- Experimental Context: in methyl acetate, 323.15 K
Measurement Type: solubility (mole fraction)
Write the value as a bare number.

Give its solubility (mole fraction) value. Item: CS(=O)(=O)c1ccc(C(=O)C2C(=O)CCCC2=O)c([N+](=O)[O-])c1 0.00381

----------
- Experimental Context: in 2-pentanol, 308.15 K
Measurement Type: solubility (mole fraction)
Write the value as a bare number.

Give its solubility (mole fraction) value. Item: CS(=O)(=O)c1ccc(C(=O)C2C(=O)CCCC2=O)c([N+](=O)[O-])c1 0.00294

----------
- Experimental Context: in methyl acetate, 288.15 K
Measurement Type: solubility (mole fraction)
Write the value as a bare number.

Give its solubility (mole fraction) value. Item: CS(=O)(=O)c1ccc(C(=O)C2C(=O)CCCC2=O)c([N+](=O)[O-])c1 0.00152

----------
- Experimental Context: in n-propanol, 293.15 K
Measurement Type: solubility (mole fraction)
Write the value as a bare number.

Give its solubility (mole fraction) value. Item: CS(=O)(=O)c1ccc(C(=O)C2C(=O)CCCC2=O)c([N+](=O)[O-])c1 0.00216

----------
- Experimental Context: in ethanol, 323.15 K
Measurement Type: solubility (mole fraction)

Give its solubility (mole fraction) value. Item: CS(=O)(=O)c1ccc(C(=O)C2C(=O)CCCC2=O)c([N+](=O)[O-])c1 0.00857

----------
- Experimental Context: in 2-pentanol, 288.15 K
Measurement Type: solubility (mole fraction)
Write the value as a bare number.

Give its solubility (mole fraction) value. Item: CS(=O)(=O)c1ccc(C(=O)C2C(=O)CCCC2=O)c([N+](=O)[O-])c1 0.00081

----------
- Experimental Context: in cyclohexane, 303.15 K
Measurement Type: solubility (mole fraction)
Write the value as a bare number.

Give its solubility (mole fraction) value. Item: CS(=O)(=O)c1ccc(C(=O)C2C(=O)CCCC2=O)c([N+](=O)[O-])c1 0.000733

----------
- Experimental Context: in 2-pentanol, 303.15 K
Measurement Type: solubility (mole fraction)
Write the value as a bare number.

Give its solubility (mole fraction) value. Item: CS(=O)(=O)c1ccc(C(=O)C2C(=O)CCCC2=O)c([N+](=O)[O-])c1 0.00216

----------
- Experimental Context: in n-butyl acetate, 308.15 K
Measurement Type: solubility (mole fraction)
Write the value as a bare number.

Give its solubility (mole fraction) value. Item: CS(=O)(=O)c1ccc(C(=O)C2C(=O)CCCC2=O)c([N+](=O)[O-])c1 0.00127

----------
- Experimental Context: in ethyl acetate, 323.15 K
Measurement Type: solubility (mole fraction)
Write the value as a bare number.

Give its solubility (mole fraction) value. Item: CS(=O)(=O)c1ccc(C(=O)C2C(=O)CCCC2=O)c([N+](=O)[O-])c1 0.00287

----------
- Experimental Context: in MTBE, 298.15 K
Measurement Type: solubility (mole fraction)
Write the value as a bare number.

Give its solubility (mole fraction) value. Item: CS(=O)(=O)c1ccc(C(=O)C2C(=O)CCCC2=O)c([N+](=O)[O-])c1 0.000367

----------
- Experimental Context: in n-propanol, 323.15 K
Measurement Type: solubility (mole fraction)
Write the value as a bare number.

Give its solubility (mole fraction) value. Item: CS(=O)(=O)c1ccc(C(=O)C2C(=O)CCCC2=O)c([N+](=O)[O-])c1 0.00793

----------
- Experimental Context: in ethyl acetate, 298.15 K
Measurement Type: solubility (mole fraction)
Write the value as a bare number.

Give its solubility (mole fraction) value. Item: CS(=O)(=O)c1ccc(C(=O)C2C(=O)CCCC2=O)c([N+](=O)[O-])c1 0.00109

----------
- Experimental Context: in methyl acetate, 283.15 K
Measurement Type: solubility (mole fraction)
Write the value as a bare number.

Give its solubility (mole fraction) value. Item: CS(=O)(=O)c1ccc(C(=O)C2C(=O)CCCC2=O)c([N+](=O)[O-])c1 0.00134

----------
- Experimental Context: in n-butanol, 293.15 K
Measurement Type: solubility (mole fraction)

Give its solubility (mole fraction) value. Item: CS(=O)(=O)c1ccc(C(=O)C2C(=O)CCCC2=O)c([N+](=O)[O-])c1 0.00139

----------
- Experimental Context: in methyl acetate, 298.15 K
Measurement Type: solubility (mole fraction)
Write the value as a bare number.

Give its solubility (mole fraction) value. Item: CS(=O)(=O)c1ccc(C(=O)C2C(=O)CCCC2=O)c([N+](=O)[O-])c1 0.00194

----------
- Experimental Context: in n-propanol, 288.15 K
Measurement Type: solubility (mole fraction)
Write the value as a bare number.

Give its solubility (mole fraction) value. Item: CS(=O)(=O)c1ccc(C(=O)C2C(=O)CCCC2=O)c([N+](=O)[O-])c1 0.00168

----------
- Experimental Context: in ethanol, 288.15 K
Measurement Type: solubility (mole fraction)

Give its solubility (mole fraction) value. Item: CS(=O)(=O)c1ccc(C(=O)C2C(=O)CCCC2=O)c([N+](=O)[O-])c1 0.00264

----------
- Experimental Context: in cyclohexane, 318.15 K
Measurement Type: solubility (mole fraction)
Write the value as a bare number.

Give its solubility (mole fraction) value. Item: CS(=O)(=O)c1ccc(C(=O)C2C(=O)CCCC2=O)c([N+](=O)[O-])c1 0.00122

----------
- Experimental Context: in methanol, 288.15 K
Measurement Type: solubility (mole fraction)
Write the value as a bare number.

Give its solubility (mole fraction) value. Item: CS(=O)(=O)c1ccc(C(=O)C2C(=O)CCCC2=O)c([N+](=O)[O-])c1 0.00401

----------
- Experimental Context: in n-pentanol, 283.15 K
Measurement Type: solubility (mole fraction)
Write the value as a bare number.

Give its solubility (mole fraction) value. Item: CS(=O)(=O)c1ccc(C(=O)C2C(=O)CCCC2=O)c([N+](=O)[O-])c1 0.000635

----------
- Experimental Context: in cyclohexane, 323.15 K
Measurement Type: solubility (mole fraction)
Write the value as a bare number.

Give its solubility (mole fraction) value. Item: CS(=O)(=O)c1ccc(C(=O)C2C(=O)CCCC2=O)c([N+](=O)[O-])c1 0.00168

----------
- Experimental Context: in sec-butanol, 288.15 K
Measurement Type: solubility (mole fraction)

Give its solubility (mole fraction) value. Item: CS(=O)(=O)c1ccc(C(=O)C2C(=O)CCCC2=O)c([N+](=O)[O-])c1 0.000507

----------
- Experimental Context: in ethyl acetate, 308.15 K
Measurement Type: solubility (mole fraction)
Write the value as a bare number.

Give its solubility (mole fraction) value. Item: CS(=O)(=O)c1ccc(C(=O)C2C(=O)CCCC2=O)c([N+](=O)[O-])c1 0.00163

----------
- Experimental Context: in n-pentanol, 323.15 K
Measurement Type: solubility (mole fraction)
Write the value as a bare number.

Give its solubility (mole fraction) value. Item: CS(=O)(=O)c1ccc(C(=O)C2C(=O)CCCC2=O)c([N+](=O)[O-])c1 0.007

----------
- Experimental Context: in ethanol, 303.15 K
Measurement Type: solubility (mole fraction)
Write the value as a bare number.

Give its solubility (mole fraction) value. Item: CS(=O)(=O)c1ccc(C(=O)C2C(=O)CCCC2=O)c([N+](=O)[O-])c1 0.00455

----------
- Experimental Context: in n-butanol, 298.15 K
Measurement Type: solubility (mole fraction)
Write the value as a bare number.

Give its solubility (mole fraction) value. Item: CS(=O)(=O)c1ccc(C(=O)C2C(=O)CCCC2=O)c([N+](=O)[O-])c1 0.00193

----------
- Experimental Context: in n-butyl acetate, 283.15 K
Measurement Type: solubility (mole fraction)
Write the value as a bare number.

Give its solubility (mole fraction) value. Item: CS(=O)(=O)c1ccc(C(=O)C2C(=O)CCCC2=O)c([N+](=O)[O-])c1 0.000418

----------
- Experimental Context: in MTBE, 283.15 K
Measurement Type: solubility (mole fraction)
Write the value as a bare number.

Give its solubility (mole fraction) value. Item: CS(=O)(=O)c1ccc(C(=O)C2C(=O)CCCC2=O)c([N+](=O)[O-])c1 0.000245

----------
- Experimental Context: in MTBE, 293.15 K
Measurement Type: solubility (mole fraction)
Write the value as a bare number.

Give its solubility (mole fraction) value. Item: CS(=O)(=O)c1ccc(C(=O)C2C(=O)CCCC2=O)c([N+](=O)[O-])c1 0.000322

----------
- Experimental Context: in methanol, 283.15 K
Measurement Type: solubility (mole fraction)
Write the value as a bare number.

Give its solubility (mole fraction) value. Item: CS(=O)(=O)c1ccc(C(=O)C2C(=O)CCCC2=O)c([N+](=O)[O-])c1 0.00351

Ref: BigSolDB 2.1
